Target: EGFR L858R/T790M/C797S (Homo sapiens, UniProt P00533, C797S/L858R/T790M)
Sequence (P00533 25-1210 T790M/C797S/L858R): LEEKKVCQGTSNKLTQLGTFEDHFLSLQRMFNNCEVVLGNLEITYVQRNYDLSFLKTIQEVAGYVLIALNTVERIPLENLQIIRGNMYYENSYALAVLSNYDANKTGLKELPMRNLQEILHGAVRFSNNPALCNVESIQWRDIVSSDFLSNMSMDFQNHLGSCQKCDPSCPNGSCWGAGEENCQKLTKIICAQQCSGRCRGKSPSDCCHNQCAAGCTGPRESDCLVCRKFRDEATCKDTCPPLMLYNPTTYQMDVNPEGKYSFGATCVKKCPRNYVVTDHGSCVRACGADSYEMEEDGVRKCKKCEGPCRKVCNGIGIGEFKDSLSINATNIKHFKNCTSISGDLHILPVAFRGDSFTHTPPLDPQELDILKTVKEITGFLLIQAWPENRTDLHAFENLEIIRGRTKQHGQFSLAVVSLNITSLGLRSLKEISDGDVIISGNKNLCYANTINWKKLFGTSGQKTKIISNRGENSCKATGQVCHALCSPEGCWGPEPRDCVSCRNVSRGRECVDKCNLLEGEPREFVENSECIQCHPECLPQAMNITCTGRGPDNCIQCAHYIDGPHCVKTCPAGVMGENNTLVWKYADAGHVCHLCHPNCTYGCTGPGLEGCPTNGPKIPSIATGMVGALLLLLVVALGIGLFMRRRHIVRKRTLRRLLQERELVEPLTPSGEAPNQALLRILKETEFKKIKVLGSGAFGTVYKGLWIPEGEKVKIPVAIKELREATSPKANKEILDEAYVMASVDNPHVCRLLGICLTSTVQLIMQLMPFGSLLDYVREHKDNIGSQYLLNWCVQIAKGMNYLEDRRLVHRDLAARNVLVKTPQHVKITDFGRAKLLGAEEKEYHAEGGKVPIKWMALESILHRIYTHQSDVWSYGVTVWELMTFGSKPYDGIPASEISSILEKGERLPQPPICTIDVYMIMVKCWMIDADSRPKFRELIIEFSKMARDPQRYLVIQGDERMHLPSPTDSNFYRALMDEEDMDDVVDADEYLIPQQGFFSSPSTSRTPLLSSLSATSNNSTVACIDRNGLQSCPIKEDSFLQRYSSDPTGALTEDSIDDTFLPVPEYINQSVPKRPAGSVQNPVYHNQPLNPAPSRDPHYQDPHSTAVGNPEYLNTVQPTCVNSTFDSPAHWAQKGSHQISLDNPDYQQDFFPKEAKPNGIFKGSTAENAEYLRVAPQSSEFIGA
Test: Biochemical EGFR kinase assay (Lance Ultra TR-FRET), triple mutant L858R/T790M/C797S
Conditions: IC50 L858R/T790M/C797S (nM) 100 μM ATP, 100 μM ATP
# IC50 annotations
Give your result in nM as a bare value.

Solved entries (count: 3):
C[C@]1(O)CC[C@@H](Nc2cc(Nc3ccnc(-c4cnn(S(=O)(=O)C5CC5)c4)n3)ncc2-c2ccc(N3CCOCC3)cn2)CC1 [Example 38] ... 0.7
CN(C)Cc1ccc(-c2cnc(Nc3ccnc(-c4cnn(S(=O)(=O)C5CC5)c4)n3)cc2N[C@H]2CC[C@@](C)(O)CC2)nc1 [Example 31] ... 0.1
O=S(=O)(C1CC1)n1cc(-c2nccc(Nc3cc(N[C@H]4CC[C@@H](NCCF)CC4)c(-c4ccc(CO)cn4)cn3)n2)cn1 [Example 21] ... 0.6

Now consider a different molecule.
Quick one: IC50 for C[C@]1(O)CC[C@@H](Nc2cc(Nc3ccnc(-c4cnn(S(=O)(=O)C5CC5)c4)n3)ncc2-c2ccc(CN3CCC(F)(F)CC3)cn2)CC1 [Example 33] ?
3.1

###

Molecular target: EGFR L858R/C797S (Homo sapiens, UniProt P00533, C797S/L858R)
Sequence (P00533 25-1210 C797S/L858R): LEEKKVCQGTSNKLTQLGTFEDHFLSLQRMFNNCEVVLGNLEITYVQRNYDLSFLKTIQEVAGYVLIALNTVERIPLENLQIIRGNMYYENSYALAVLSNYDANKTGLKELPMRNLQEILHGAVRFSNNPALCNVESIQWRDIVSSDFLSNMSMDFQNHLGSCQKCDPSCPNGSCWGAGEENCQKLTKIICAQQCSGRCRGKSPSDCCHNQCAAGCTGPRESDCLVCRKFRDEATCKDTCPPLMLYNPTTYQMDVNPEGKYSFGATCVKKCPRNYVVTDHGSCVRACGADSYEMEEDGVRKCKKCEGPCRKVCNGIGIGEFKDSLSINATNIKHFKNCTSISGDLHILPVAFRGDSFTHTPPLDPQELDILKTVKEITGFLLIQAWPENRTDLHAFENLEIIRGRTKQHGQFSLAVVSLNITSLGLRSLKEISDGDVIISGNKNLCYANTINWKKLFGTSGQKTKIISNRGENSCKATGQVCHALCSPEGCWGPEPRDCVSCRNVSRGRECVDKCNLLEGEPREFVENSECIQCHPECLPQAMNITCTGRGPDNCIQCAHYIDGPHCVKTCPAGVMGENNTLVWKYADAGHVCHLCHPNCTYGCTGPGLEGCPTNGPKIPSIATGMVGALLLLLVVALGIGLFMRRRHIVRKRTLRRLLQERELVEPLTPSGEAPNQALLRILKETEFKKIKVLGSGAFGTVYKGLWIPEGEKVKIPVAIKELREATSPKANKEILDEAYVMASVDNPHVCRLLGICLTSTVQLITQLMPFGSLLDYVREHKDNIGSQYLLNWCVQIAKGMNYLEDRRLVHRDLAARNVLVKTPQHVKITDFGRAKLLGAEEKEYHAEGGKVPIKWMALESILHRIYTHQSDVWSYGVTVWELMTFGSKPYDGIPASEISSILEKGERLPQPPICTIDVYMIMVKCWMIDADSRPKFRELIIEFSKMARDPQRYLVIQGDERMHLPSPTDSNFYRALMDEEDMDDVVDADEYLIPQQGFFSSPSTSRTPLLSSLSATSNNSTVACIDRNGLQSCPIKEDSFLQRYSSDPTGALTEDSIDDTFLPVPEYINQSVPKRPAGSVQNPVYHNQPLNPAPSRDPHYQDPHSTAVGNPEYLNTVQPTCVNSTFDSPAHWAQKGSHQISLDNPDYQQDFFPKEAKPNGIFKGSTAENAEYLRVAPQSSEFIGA
Assay: Biochemical EGFR kinase assay (Lance Ultra TR-FRET), double mutant L858R/C797S
Details: Km ATP; read-out: IC50 L858R/C797S (nM) Km ATP
MEASUREMENT_KIND: IC50 (nM)
Give your result in nM as a bare value.

Solved entries (count: 10):
CN(C)C[C@H]1CC[C@@H](Nc2cc(Nc3ccnc(-c4cnn(S(=O)(=O)C5CC5)c4)n3)ncc2-c2cc(N3CCC(F)(F)CC3)ccn2)CC1 ... 2.1
COC1CN(c2ccc(-c3cnc(Nc4ccnc(-c5cnn(S(=O)(=O)C6CC6)c5)n4)cc3N[C@H]3CC[C@@H](CN(C)C)CC3)nc2)C1 ... 0.3
CC(C)Nc1cc(Nc2ccnc(-c3cnn(S(=O)(=O)C4CC4)c3)n2)ncc1-c1cnc(C(C)(C)O)cn1 ... 2.9
C[C@]1(O)CC[C@@H](Nc2cc(Nc3ccnc(-c4cnn(S(=O)(=O)C5CC5)c4)n3)ncc2-c2ccc(N3CCOCC3)nn2)CC1 ... 0.6
CN(C)Cc1cnc(-c2cnc(Nc3ccnc(-c4cnn(S(=O)(=O)C5CC5)c4)n3)cc2N[C@H]2CC[C@@](C)(O)CC2)cn1 ... 0.1
C[C@]1(O)CC[C@@H](Nc2cc(Nc3ccnc(-c4cnn(S(=O)(=O)C5CC5)c4)n3)ncc2-c2cc(C(F)F)ccn2)CC1 ... 2.1
O=S(=O)(C1CC1)n1cc(-c2nccc(Nc3cc(N[C@H]4CC[C@@H](CO)CC4)c(-c4ccc(CN5CCC(O)CC5)cn4)cn3)n2)cn1 ... 0.1
C[C@]1(O)CC[C@@H](Nc2cc(Nc3ccnc(-c4cnn(S(=O)(=O)C5CC5)c4)n3)ncc2-c2cnc(OC3COC3)cn2)CC1 ... 0.4
CC(C)(O)[C@H]1CC[C@@H](Nc2cc(Nc3ccnc(-c4cnn(S(=O)(=O)C5CC5)c4)n3)ncc2-c2cc(C(F)F)ccn2)CC1 ... 16.6
O=S(=O)(C1CC1)n1cc(-c2nccc(Nc3cc(N[C@H]4CC[C@@H](F)CC4)c(-c4ccc(N5CCOCC5)cn4)cn3)n2)cn1 ... 2.3

Quick one: IC50 for CN1CCC(Oc2ccc(-c3cnc(Nc4ccnc(-c5cnn(S(=O)(=O)C6CC6)c5)n4)cc3NC3CCC(F)(F)C3)nc2)CC1 (stereo not drawn) ?
1.1

Quick one: IC50 for CC(C)(O)[C@H]1CC[C@@H](Nc2cc(Nc3ccnc(-c4cnn(S(=O)(=O)C5CC5)c4)n3)ncc2-c2cc(CN3CCC(F)(F)CC3)ccn2)CC1 ?
15.7

Quick one: IC50 for CC(C)Nc1cc(Nc2ccnc(-c3cnn(S(=O)(=O)C4CC4)c3)n2)ncc1-c1ccc(CN2CCOCC2)cn1 ?
12.1

Quick one: IC50 for C[C@]1(O)CC[C@@H](Nc2cc(Nc3ccnc(-c4cnn(S(=O)(=O)C5CC5)c4)n3)ncc2-c2ccc(OC(F)F)cn2)CC1 ?
1.8
